System: SK-LU-1
Experiment: relative viability (nuclei count vs DMSO), 5 days (fraction); higher = more cells survive
Settings: first compound 0.04 µM
Endpoint label: relative viability

1. COc1cc(N2CCC(C(N)=O)CC2)ccc1Nc1nc(N)c(Cl)c(Nc2ccccc2S(=O)(=O)C(C)C)n1 [HG-5-88-01] + CCNC(=O)c1noc(-c2cc(C(C)C)c(O)cc2O)c1-c1ccc(CN2CCOCC2)cc1 [Luminespib] (partner 0.01 µM)
0.209
2. COc1cc(N2CCC(C(N)=O)CC2)ccc1Nc1nc(N)c(Cl)c(Nc2ccccc2S(=O)(=O)C(C)C)n1 [HG-5-88-01] + C[C@]1(O)C[C@@H](c2nc(-c3ccc4ccc(-c5ccccc5)nc4c3)c3c(N)nccn32)C1 [Linsitinib] (partner 1 µM)
1.02
3. C[C@@H]1CN(CC(=O)Nc2ccc3c(c2)Cc2cccc(-c4cc(=O)cc(N5CCOCC5)o4)c2S3)C[C@H](C)O1 + Nc1ncn([C@H]2C[C@H](O)[C@@H](CO)O2)c(=O)n1 [Decitabine] (partner 2 µM)
0.693
4. Clc1ccc(Nc2nnc(Cc3ccncc3)c3ccccc23)cc1 [Vatalanib] + Cc1nc(NC(=O)N2CCC[C@H]2C(N)=O)sc1-c1ccnc(C(C)(C)C(F)(F)F)c1 [Alpelisib] (partner 2 µM)
1.09

====

relative viability by entry:
Tested on: NCI-H23
Test: relative viability (nuclei count vs DMSO), 5 days (fraction); higher = more cells survive
Conditions: first compound 0.4 µM
Endpoint label: relative viability

1) C[C@@H]1CN(CC(=O)Nc2ccc3c(c2)Cc2cccc(-c4cc(=O)cc(N5CCOCC5)o4)c2S3)C[C@H](C)O1 + CS(=O)(=O)CCNCc1ccc(-c2ccc3ncnc(Nc4ccc(OCc5cccc(F)c5)c(Cl)c4)c3c2)o1 [Lapatinib] (partner 2 µM)
1.01
2) Clc1ccc(Nc2nnc(Cc3ccncc3)c3ccccc23)cc1 [Vatalanib] + C[C@]1(O)C[C@@H](c2nc(-c3ccc4ccc(-c5ccccc5)nc4c3)c3c(N)nccn32)C1 [Linsitinib] (partner 1 µM)
0.601
3) COc1cc(N2CCC(C(N)=O)CC2)ccc1Nc1nc(N)c(Cl)c(Nc2ccccc2S(=O)(=O)C(C)C)n1 [HG-5-88-01] + CC(=O)Nc1cccc(-n2c(=O)n(C3CC3)c(=O)c3c(Nc4ccc(I)cc4F)n(C)c(=O)c(C)c32)c1 [Trametinib] (partner 0.02 µM)
0.366
4) C[C@@H]1CN(CC(=O)Nc2ccc3c(c2)Cc2cccc(-c4cc(=O)cc(N5CCOCC5)o4)c2S3)C[C@H](C)O1 + Cc1nc(Nc2ncc(C(=O)Nc3c(C)cccc3Cl)s2)cc(N2CCN(CCO)CC2)n1 [Dasatinib] (partner 0.075 µM)
0.711
5) COc1cc(N2CCC(C(N)=O)CC2)ccc1Nc1nc(N)c(Cl)c(Nc2ccccc2S(=O)(=O)C(C)C)n1 [HG-5-88-01] + CC(=O)c1c(C)c2cnc(Nc3ccc(N4CCNCC4)cn3)nc2n(C2CCCC2)c1=O [Palbociclib] (partner 0.5 µM)
0.545
6) Clc1ccc(Nc2nnc(Cc3ccncc3)c3ccccc23)cc1 [Vatalanib] + O=C(CCCCCCC(=O)Nc1ccccc1)NO [Vorinostat] (partner 1 µM)
0.77
7) COc1cc(N2CCC(C(N)=O)CC2)ccc1Nc1nc(N)c(Cl)c(Nc2ccccc2S(=O)(=O)C(C)C)n1 [HG-5-88-01] + Cc1nc(NC(=O)N2CCC[C@H]2C(N)=O)sc1-c1ccnc(C(C)(C)C(F)(F)F)c1 [Alpelisib] (partner 2 µM)
0.67
8) C[C@@H]1CN(CC(=O)Nc2ccc3c(c2)Cc2cccc(-c4cc(=O)cc(N5CCOCC5)o4)c2S3)C[C@H](C)O1 + CC(=O)c1c(C)c2cnc(Nc3ccc(N4CCNCC4)cn3)nc2n(C2CCCC2)c1=O [Palbociclib] (partner 0.5 µM)
0.436
9) C[C@@H]1CN(CC(=O)Nc2ccc3c(c2)Cc2cccc(-c4cc(=O)cc(N5CCOCC5)o4)c2S3)C[C@H](C)O1 + COc1cc2c(Oc3ccc(NC(=O)C4(C(=O)Nc5ccc(F)cc5)CC4)cc3F)ccnc2cc1OCCCN1CCOCC1 [Foretinib] (partner 0.25 µM)
0.945
10) Clc1ccc(Nc2nnc(Cc3ccncc3)c3ccccc23)cc1 [Vatalanib] + C[C@@H](Oc1cc(-c2cnn(C3CCNCC3)c2)cnc1N)c1c(Cl)ccc(F)c1Cl [Crizotinib] (partner 1 µM)
0.491
11) C[C@@H]1CN(CC(=O)Nc2ccc3c(c2)Cc2cccc(-c4cc(=O)cc(N5CCOCC5)o4)c2S3)C[C@H](C)O1 + NC(=O)Nc1cc(-c2cccc(F)c2)sc1C(=O)N[C@H]1CCCNC1 [AZD7762] (partner 0.2 µM)
0.226
12) COc1cc(N2CCC(C(N)=O)CC2)ccc1Nc1nc(N)c(Cl)c(Nc2ccccc2S(=O)(=O)C(C)C)n1 [HG-5-88-01] + Nc1ncn([C@H]2C[C@H](O)[C@@H](CO)O2)c(=O)n1 [Decitabine] (partner 2 µM)
0.327
13) COc1cc(N2CCC(C(N)=O)CC2)ccc1Nc1nc(N)c(Cl)c(Nc2ccccc2S(=O)(=O)C(C)C)n1 [HG-5-88-01] + N=C(N)NC(=N)NCCc1ccccc1 [Phenformin] (partner 250 µM)
0.786
